The origin of these recorded values is ChEMBL document CHEMBL3232988.

- Test system: K562
- assay-protocol: Antiproliferative activity against human K562 cells after 24 hrs by MTT assay
- Assay type: functional, cell-based
- condition-label: K562, 24 h
assay-readout: pIC50
Give only the number. pIC50 is defined as minus log10 of concentration in molar units.

Exam item: // fetch pIC50 for `CCC(=O)Oc1ccc(C(=O)/C=C/c2ccc3c(ccn3C)c2)c2c1C=CC(C)(C)O2` ; system: K562
Marked response: 6.10

###

- System: PC-3
- assay-protocol: Antiproliferative activity against human PC3 cells after 24 hrs by MTT assay
- Assay type: functional, cell-based
- condition-label: PC-3, 24 h
assay-readout: IC50 (µM)
Provide the reading as a plain figure in µM.

Exam item: Give a short answer stating reported IC50 for `CCC(=O)Oc1ccc(C(=O)/C=C/c2ccc3c(ccn3C)c2)c2c1C=CC(C)(C)O2` .
Marked response: 0.65

###

- Test system: MCF7
- assay-protocol: Antiproliferative activity against human MCF7 cells after 24 hrs by MTT assay
- Format: functional, cell-based
- condition-label: MCF7, 24 h
assay-readout: IC50 (nM)
Provide the reading as a plain figure in nM.

Exam item: // fetch IC50 for `CCC(=O)Oc1ccc(C(=O)/C=C/c2ccc3c(ccn3C)c2)c2c1C=CC(C)(C)O2` ; system: MCF7
Marked response: 1500

###

- assay-protocol: Antiproliferative activity against taxol resistant human HCT8 cells after 24 hrs by MTT assay
- Format: functional, cell-based
- condition-label: HCT-8, 24 h
assay-readout: IC50 (nM)
Provide the reading as a plain figure in nM.

Exam item: Give a short answer stating reported IC50 for `CCC(=O)Oc1ccc(C(=O)/C=C/c2ccc3c(ccn3C)c2)c2c1C=CC(C)(C)O2` .
Marked response: 1600
